# Method summary: in vivo
# Parameters: species or system female short hair Tabby cats
# Applied conditions: cat, po, time of peak concentrations of β-carotene (post-dosing)
Property name: Tmax

Need Tmax, item CC1=C(/C=C/C(C)=C/C=C/C(C)=C/C=C/C=C(C)/C=C/C=C(C)/C=C/C2=C(C)CCCC2(C)C)C(C)(C)CCC1 [β-carotene]
10 to 16 h

* * *

# Method summary: in vivo
# Applied conditions: dog, po
Property name: Tmax

Need Tmax, item CC1=C(/C=C/C(C)=C/C=C/C(C)=C/C=C/C=C(C)/C=C/C=C(C)/C=C/C2=C(C)CCCC2(C)C)C(C)(C)CCC1 [β-carotene]
3 to 6 h

* * *

# Method summary: in vivo
# Parameters: species or system female short hair Tabby cats
# Applied conditions: cat, po, half-life of plasma β-carotene
Property name: half-life

Need half-life, item `CC1=C(/C=C/C(C)=C/C=C/C(C)=C/C=C/C=C(C)/C=C/C=C(C)/C=C/C2=C(C)CCCC2(C)C)C(C)(C)CCC1`
12 to 18 h

* * *

# Method summary: in vivo
# Applied conditions: dog, po, half-life of plasma β-carotene
Property name: half-life

Need half-life, item `CC1=C(/C=C/C(C)=C/C=C/C(C)=C/C=C/C=C(C)/C=C/C=C(C)/C=C/C2=C(C)CCCC2(C)C)C(C)(C)CCC1`
~3 h

* * *

# Method summary: Blood uptake of β-carotene in dogs after a single oral dose (plasma, HPLC)
# Applied conditions: dog
Property name: Tmax
A complete answer gives the number and then names the unit.

Need Tmax, item `CC1=C(/C=C/C(C)=C/C=C/C(C)=C/C=C/C=C(C)/C=C/C=C(C)/C=C/C2=C(C)CCCC2(C)C)C(C)(C)CCC1`
6 h
